Below, each entry is listed with its recorded Phytotoxicity Wh.
# Test system: wheat
# METHOD: Test Example 4: phytotoxicity to upland crop plants, treatment after emergence
# Type: in vivo
# CONDITION_DETAILS: dosage 5 kg/ha, sprayed after emergence, judged 14 days after treatment

Here's what some known entries look like.
[[record]]
molecule = "Cc1c(Cl)cccc1NC(=O)c1cc2c(nc1C(=O)NCC(C)C)OCCC2 [compound 431]"
quantity_name = "Phytotoxicity Wh"
recorded_measurement = "4 (Crop-killing rate is 90-99%.)"

[[record]]
molecule = "CCCNC(=O)c1nc2c(cc1C(=O)Nc1c(CC)ccc(Cl)c1CC)nc(C)n2C [compound 1294]"
quantity_name = "Phytotoxicity Wh"
recorded_measurement = "5 (Crop-killing rate is 100%.)"

[[record]]
molecule = "CCCNC(=O)c1nc2c(cc1C(=O)Nc1cccc(Cl)c1C)CCOC2 [compound 450]"
quantity_name = "Phytotoxicity Wh"
recorded_measurement = "4 (Crop-killing rate is 90-99%.)"

[[record]]
molecule = "CCCNC(=O)c1nc2ncccc2cc1C(=O)Nc1c(CC)ccc(Cl)c1CC [compound 361]"
quantity_name = "Phytotoxicity Wh"
recorded_measurement = "5 (Crop-killing rate is 100%.)"

[[record]]
molecule = "CCCNC(=O)c1nc2ccccc2nc1C(=O)Nc1cccc(Cl)c1C [compound 1318]"
quantity_name = "Phytotoxicity Wh"
recorded_measurement = "4 (Crop-killing rate is 90-99%.)"

[[record]]
molecule = "CCNC(=O)c1nc2ccc(OC)cc2cc1C(=O)Nc1c(CC)ccc(Cl)c1CC [compound 289]"
quantity_name = "Phytotoxicity Wh"
recorded_measurement = "2 (Crop-killing rate is 40-69%.)"

[[record]]
molecule = "Cc1c(Cl)cccc1NC(=O)c1cc2c(nc1C(=O)NCC(C)C)SCCC2 [compound 527]"
quantity_name = "Phytotoxicity Wh"
recorded_measurement = "5 (Crop-killing rate is 100%.)"

[[record]]
molecule = "CCCNC(=O)c1nc2c(cc1C(=O)Nc1c(CC)ccc(Cl)c1CC)ncn2C [compound 1269]"
quantity_name = "Phytotoxicity Wh"
recorded_measurement = "5 (Crop-killing rate is 100%.)"

[[record]]
molecule = "CCCNC(=O)c1nc2scc(Br)c2cc1C(=O)Nc1c(CC)ccc(Cl)c1CC [compound 814]"
quantity_name = "Phytotoxicity Wh"
recorded_measurement = "4 (Crop-killing rate is 90-99%.)"

[[record]]
molecule = "CCCNC(=O)c1nc2c(C)nn(C)c2cc1C(=O)Nc1c(CC)ccc(Cl)c1CC [compound 1197]"
quantity_name = "Phytotoxicity Wh"
recorded_measurement = "5 (Crop-killing rate is 100%.)"


Continue with the next molecule.
**Query** Annotate the molecule CCCNC(=O)c1nc2ncn(C)c2cc1C(=O)Nc1c(CC)ccc(Cl)c1CC [compound 1209] with its measured Phytotoxicity Wh.
**Result** 5 (Crop-killing rate is 100%.)
